# SUBJECT_OF_TEST: HLA-B*46:01
# RUN_DESCRIPTION: IEDB peptide-MHC binding, purified MHC/competitive/fluorescence; filed as Kd, often an IC50 or EC50 that approximates it; bounds were set here for any values at or beyond the usual limits of such assays
# TEST_CONDITIONS: source organism: SARS-CoV1
pKd: −log10 of the molar value.
OBSERVATION_TYPE: pKd

Documented pKd of YIFFASFYY : ≤ 4.70

* * *

Measured Kd of individual entries
# SUBJECT_OF_TEST: HLA-B*51:01
# RUN_DESCRIPTION: IEDB peptide-MHC binding, purified MHC/competitive/radioactivity; filed as Kd, often an IC50 or EC50 that approximates it; bounds were set here for any values at or beyond the usual limits of such assays
# TEST_CONDITIONS: source organism: Dengue virus 4 Philippines/H241/1956

In [3]: df
Out[3]:
   biosequence  subject_of_test  data_value
0   GPWHLGKLEI      HLA-B*51:01   ≥ 23.2 µM

Documented Kd of FSGKGPLRMV : ≥ 38 µM

Documented Kd of LPESLETLML : ≥ 31.8 µM
